Target: 6-phosphogluconate dehydrogenase, decarboxylating (Homo sapiens) (UniProt P52209)
Sequence (P52209 whole entry, looked up): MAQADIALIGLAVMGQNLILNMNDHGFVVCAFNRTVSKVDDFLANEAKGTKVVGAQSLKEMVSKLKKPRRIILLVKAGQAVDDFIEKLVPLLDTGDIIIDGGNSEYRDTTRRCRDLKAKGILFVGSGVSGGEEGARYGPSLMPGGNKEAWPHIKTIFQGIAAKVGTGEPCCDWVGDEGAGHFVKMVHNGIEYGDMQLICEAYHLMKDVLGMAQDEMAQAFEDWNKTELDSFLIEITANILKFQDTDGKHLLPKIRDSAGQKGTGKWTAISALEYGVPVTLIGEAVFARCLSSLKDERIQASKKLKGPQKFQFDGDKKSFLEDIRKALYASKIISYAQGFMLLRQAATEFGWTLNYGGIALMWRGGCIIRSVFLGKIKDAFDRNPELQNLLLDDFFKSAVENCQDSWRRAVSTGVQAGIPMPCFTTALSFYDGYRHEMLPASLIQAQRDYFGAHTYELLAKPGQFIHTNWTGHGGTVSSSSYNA
Assay: 6PGD enzyme inhibitors, primary screen, biochemical, human, recombinant enzyme, NADPH absorbance (AID 1159550)
Conditions: recombinant 6PGD, NADPH absorbance 341 nm; at 10 µM; stronger effect = higher value
Measure: inhibition (%)
Dear colleague, please return just the value in %, with no unit written.

Task: Quick one: inhibition for COC(=O)c1cc(=O)c(O)c2c(O)c(O)ccc2c1 ?
Result: -4.56

Task: Quick check: inhibition of C=C(C)[C@@H]1CC[C@]2(C(=O)O)CC[C@]3(C)[C@H](CC[C@@H]4[C@@]5(C)CC[C@H](O)C(C)(C)[C@@H]5CC[C@]43C)[C@@H]12 ?
Result: 0.445

Task: # input molecule: CS(C)(=O)=O ; wanted: its inhibition
Result: 0.728

Task: Query (molecule): COC(=O)C[C@H]1C(C)(C)[C@@H](OC(C)=O)[C@@H]2CC3C4CC(=O)O[C@@H](c5ccoc5)[C@]4(C)CCC3[C@@]1(C)C2=O (stereo not given in full) ; field requested: inhibition
Result: 7.27

Task: inhibition for COC(=O)c1cc(OC)c(=O)c2c(OC)c(OC)ccc2c1 ?
Result: 7.65

Task: Which inhibition value is on record for O=C(Cc1ccccc1)NO ?
Result: -18.4

Task: Which inhibition value is on record for COc1ccc2c(c1)OC/C(=C\c1ccc(OC)c(O)c1)C2=O ?
Result: -46

Task: What does the record list as inhibition for CC1=CC2C(CC1=O)C(C)=CCC2C(C)C (stereo not given) ?
Result: 2.64

Task: Fill in the blank: the reported inhibition of CC(=O)Oc1c(-c2ccccc2)oc2c(CC=C(C)C)c3c(c(OC(C)=O)c2c1=O)C=CC(C)(C)O3 is ____.
Result: 7.48

Task: Quick one: inhibition of CC(=O)c1c(O)c(C)c(O)c2c1OC1=CC(=O)C(C(C)=O)C(=O)C12C (stereo not given) ?
Result: -11.1

Task: Can you share its inhibition? I mean this molecule: Nc1nc(N)c2nc(CNc3ccc(C(=O)N[C@@H](CCC(=O)O)C(=O)O)cc3)cnc2n1
Result: -4.2

Task: Look up inhibition: COc1cc(O)c2c(=O)c(O)c(-c3ccc(O)c(O)c3)oc2c1
Result: 4.95

Task: Can you look up the measured inhibition of NC(N)=NCCC[C@@H](NC(=O)[C@@H](N)Cc1ccc(O)cc1)C(=O)O for me?
Result: 7.11

Task: State the recorded inhibition for this entry: COc1cc(C)c2c(c1C=O)Oc1c(c(C)c(O)c3c1C(O)OC3=O)OC2=O (stereo not given)
Result: -0.395

Task: Fill in the blank: the reported inhibition of O=C(O)c1cc(=O)c(O)c2c(O)c(O)ccc2c1 is ____.
Result: 31

Task: Look up inhibition: CC1=C(/C=C/C(C)=C/C=C/C(C)=C/C=C/C=C(C)/C=C/C=C(C)/C=C/C2=C(C)CCCC2(C)C)C(C)(C)CCC1
Result: 2.51

Task: Given COc1ccc(C(C)=O)c(O)c1 , state its recorded inhibition.
Result: 10.4

Task: // lookup inhibition for CC1(C)C(=O)C=C[C@]2(C)C3CC[C@@]4(C)[C@H](c5ccoc5)OC(=O)[C@H]5O[C@]54[C@]3(C)C(=O)C[C@@H]12 (stereo not given in full)
Result: 1.03

Task: Which measured inhibition value corresponds to OC[C@H]1O[C@@](CO)(O[C@H]2O[C@H](CO)[C@@H](O)[C@H](O)[C@H]2O)[C@@H](O[C@H]2O[C@H](CO)[C@@H](O)[C@H](O)[C@H]2O)[C@@H]1O ?
Result: 15.1

Task: What value of inhibition has been reported for the following molecule? O=C(O)c1nc2cc(Cl)c(Cl)cc2[nH]c1=O
Result: -11.6

---

Experiment: growth inhibition of GSK3B-pretreated HCT116 cells – cell-based, CellTiter-Glo, 0.2 to 20 µM (AID 1117336)
Details: HCT116 viability after GSK3B inhibitor, at 20 µM, stronger effect = higher value
Measure: viability decrease (%)
The response must be a number in % with no trailing unit.

Task: I'd like to know its viability decrease. The molecule in question is CC(=O)NCc1c(I)c(NC(C)=O)c(I)c(C(=O)O)c1I
Result: -16.4

Task: Report viability decrease for CCOCCn1c(N2CCCN(C)CC2)nc2ccccc21 please.
Result: -10.6

Task: State the recorded viability decrease for this entry: CC(C)NC[C@@H](O)COc1ccc(CC(N)=O)cc1
Result: -4.35

Task: Consider the molecule CC(CN(C)C)C(C)(O)Cc1ccc(Cl)cc1 (stereo unspecified) and give its measured viability decrease.
Result: -15

Task: Report viability decrease for Cc1ccc(Nc2c(F)cccc2Cl)c(CC(=O)O)c1 please.
Result: 0.4

Task: Suppose we examine the molecule O=C(O)COCCN1CCN(C(c2ccccc2)c2ccc(Cl)cc2)CC1 (stereo unspecified) ; what viability decrease value has been reported?
Result: -8.4

Task: // viability decrease lookup, key: O=[N+]([O-])c1cccc(S(=O)(=O)NCCNS(=O)(=O)c2cccc([N+](=O)[O-])c2)c1
Result: 38.9

Task: Sample COc1ccc(C=CC(=O)Nc2ccccc2C(=O)O)cc1OC — what was its viability decrease?
Result: 4.3

Task: Entry under review: C#Cc1cccc(Nc2ncnc3cc(OCCOC)c(OCCOC)cc23)c1 . Reported viability decrease?
Result: 72.1

Task: Which value of viability decrease has been reported for CC(=O)N(CC(O)CO)c1c(I)c(C(=O)NCCO)c(I)c(C(=O)NCC(O)CO)c1I (stereo unspecified) in the records?
Result: -3.3

Task: // lookup viability decrease for Cc1cc(O)c2c(O)c3c(O)cccc3cc2c1
Result: 97

Task: Requested read-out: viability decrease. Entry: C[N+]1(C)CCC(OC(=O)C(O)(c2ccccc2)C2CCCC2)C1 (stereo unspecified)
Result: -4

Task: Param item = c1cnc2cc3c(cc2n1)C1CNCC3C1 ; retrieve measured viability decrease.
Result: -3.9

Task: State the recorded viability decrease for this entry: CCCCc1ncc(/C=C(\Cc2cccs2)C(=O)O)n1Cc1ccc(C(=O)O)cc1
Result: 9.7

Task: I would be grateful if you could share the reported viability decrease for O=C(O)[C@H](O)c1ccccc1 .
Result: -6.9

Task: Return reported viability decrease; argument: O=C(O)CCc1nc2ccccc2[nH]1
Result: 3.65

Task: Given the molecule COc1ccc2cc([C@H](C)C(=O)O)ccc2c1 , what is its reported viability decrease?
Result: -21

Task: Recorded viability decrease for C=CCc1cc(OC)c(O)c(C(=O)NCCO)c1 , please?
Result: -4.9

Task: Entry c1cc(CN2CCCCC2)cc(OCCCNc2nc3ccccc3s2)c1 : reported viability decrease = ?
Result: 29.5

Task: Query: viability decrease; subject: NC(=O)C1(N2CCCCC2)CCN(CCCN2c3ccccc3CCc3ccc(Cl)cc32)CC1
Result: 99.5

Task: Any idea what its viability decrease is? The molecule is COc1c(C)c2c(c(O)c1C/C=C(\C)CCC(=O)OCCN1CCOCC1)C(=O)OC2
Result: 98.3

Task: Recorded viability decrease for CNC(=O)c1ccccc1Sc1ccc2c(/C=C/c3ccccn3)n[nH]c2c1 , please?
Result: 21

Task: Which measured viability decrease value corresponds to CC(C)CCCC(C)NCCC(C)C (stereo unspecified) ?
Result: -5.2

Task: Query: viability decrease; subject: CC1CC(OC(=O)c2ccccc2O)CC(C)(C)C1 (stereo unspecified)
Result: -63.6

Task: Data request, read-out viability decrease, for O=c1[nH]c(=O)n([C@H]2C[C@H](O)[C@@H](CO)O2)cc1I
Result: 10.1

Task: Could you tell me which viability decrease is on file for O=c1cc[nH]c(=O)[nH]1 ?
Result: 0.75

Task: Could you share which viability decrease value was measured for CN1C(=O)CC(c2ccccc2)C1=O (stereo unspecified) ?
Result: 4.95

Task: Suppose we examine the molecule COC(=O)C1=C(C)NC(C)=C(C(=O)OCCCN2CCC(c3ccccc3)(c3ccccc3)CC2)C1c1cccc([N+](=O)[O-])c1 (stereo unspecified) ; what viability decrease value has been reported?
Result: 110

Task: What does the record list as viability decrease for CCN(CC)C(=O)/C(C#N)=C/c1cc(O)c(O)c([N+](=O)[O-])c1 ?
Result: 36

Task: Quick one: viability decrease of CCCCC(CC)COC(=O)C(C#N)=C(c1ccccc1)c1ccccc1 (stereo unspecified) ?
Result: 51.7

Task: Recorded viability decrease for OC[C@@H](O)[C@@H](O[C@@H]1O[C@H](CO)[C@H](O)[C@H](O)[C@H]1O)[C@H](O)[C@@H](O)CO , please?
Result: 22.6

Task: State the recorded viability decrease for this entry: Cc1c(N)cccc1C(F)(F)F
Result: 2.8

Task: Data request, read-out viability decrease, for CCN[C@H]1CN(CCCOC)S(=O)(=O)c2sc(S(N)(=O)=O)cc21
Result: -7.1

Task: What value of viability decrease has been reported for the following molecule? C[C@]1(Cn2ccnn2)[C@H](C(=O)O)N2C(=O)C[C@H]2S1(=O)=O
Result: -2.3

Task: Which measured viability decrease value corresponds to Cc1c(F)c(N2CCNC(C)C2)cc2c1c(=O)c(C(=O)O)cn2C1CC1 (stereo unspecified) ?
Result: 57.3

Task: Fill in the blank: the reported viability decrease of CC(C)Cn1cnc2c(N)nc3ccccc3c21 is ____.
Result: -1.15

Task: Can you look up the measured viability decrease of O=C(O)C(S)C(S)C(=O)O (stereo unspecified) for me?
Result: -17

Task: Given the entry COCCOCC(OC)OC , report its measured viability decrease.
Result: 0.6

Task: What measured viability decrease goes with CCOC(=O)Nc1ccc(NCc2ccc(F)cc2)nc1N ?
Result: 5.6

Task: Sample CC(C)(C(=O)O)c1ccc(C(O)CCCN2CCC(C(O)(c3ccccc3)c3ccccc3)CC2)cc1 (stereo unspecified) — what was its viability decrease?
Result: 1.3

Task: Could you tell me which viability decrease is on file for O=C1[O][Bi][O]c2ccccc21 ?
Result: 13.3

Task: What does the data say about its viability decrease? Entry: CC(C)C[C@H](NC(=O)[C@H](Cc1ccccc1)NC(=O)c1cnccn1)B(O)O
Result: 99

Task: If you can, please state the reported viability decrease value of Cc1cc(-c2ccc(N=Nc3c(S(=O)(=O)O)cc4cc(S(=O)(=O)O)cc(N)c4c3O)c(C)c2)ccc1N=Nc1c(S(=O)(=O)O)cc2cc(S(=O)(=O)O)cc(N)c2c1O .
Result: 35.2

Task: Which value of viability decrease has been reported for c1ccc2ccccc2c1 in the records?
Result: 13.1

Task: Report viability decrease for CN1CCCN(C(c2ccccc2)c2ccc(Cl)cc2)CC1 (stereo unspecified) please.
Result: 96

Task: What value of viability decrease has been reported for the following molecule? C=C1C[C@H]2[C@@H]3C=C(C)C4=CC(=O)CC[C@]4(C)[C@H]3CC[C@]2(C)[C@@]1(OC(C)=O)C(C)=O
Result: 37.4
